test: ATG_MRE_CIS: Attagene CIS-FACTORIAL HepG2 Assay for human Metal Responsive Element (MRE) (AID 2282954); settings: HepG2 MRE cis-reporter transcription, Attagene multiplex; actives raise or lower the signal
The source made the active and inactive calls. The calls were made as follows: active = hit-call score of the fitted dose curve at least 0.9, where 1 is the maximum; inactive = score below 0.9.
Labels: 1.0 (active), 0.0 (inactive)

molecule	labelClass
Cc1c(O)cccc1O	0.0
CC(C)OC(=O)c1ccccc1	0.0
CCN(CC)c1cccc(C)c1	0.0
CCOC(=O)[C@H](O)[C@@H](O)C(=O)OCC	0.0
CCCCCCCCCC(C)=O	0.0
O=C(O)CC(C(=O)O)S(=O)(=O)O (stereo unspecified)	0.0
Nc1ccc(O)c([N+](=O)[O-])c1	0.0
CCCCCCCC(=O)OCC(COC(=O)CCCCCCC)OC(=O)CCCCCCC	0.0
COC(OC)(C(=O)c1ccccc1)c1ccccc1	1.0
CC1=CP(=O)(c2ccccc2)CC1 (stereo unspecified)	0.0
CCCCNC(=S)NCCCC	0.0
COC(=O)CC(C)CCC=C(C)C (stereo unspecified)	0.0
CC(=O)OCc1ccccc1	0.0
Cc1ccccc1CCO	0.0
CCOC(=O)/C=C\C(=O)OCC	0.0
COc1cc(C)ccc1O	0.0
Nc1ncnc2nc[nH]c12	0.0
Cc1cc(=O)[nH]c(=O)[nH]1	0.0
CC(C)(CO)COC(=O)C(C)(C)CO	0.0
O=C(O)CCCC(=O)O	0.0
CC1=CCC2CC1C2(C)C (stereo unspecified)	0.0
CC(CC=O)CC(C)(C)C (stereo unspecified)	0.0
CC1=CCC(C(C)C)C=C1 (stereo unspecified)	1.0
CC1(C)C(=O)N(CO)C(=O)N1CO	0.0
CCOC(=O)c1ccc(C)cc1	0.0
CCCCCCCCCCCCc1ccc(O)cc1	0.0
Cc1ccc(C)c(OCCCC(C)(C)C(=O)O)c1	0.0
CC(C)(C)N	0.0
COc1cc(O)c(C(=O)c2ccccc2)cc1S(=O)(=O)O	0.0
CCCCC(C=O)CC (stereo unspecified)	0.0
Cc1c(C(=O)c2c[nH]n(C)c2=O)ccc(S(C)(=O)=O)c1C1=NOCC1	0.0
